Test system: ATP;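 also: ATP exposure 15 min at 22 °C before imaging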
Experiment: switch fluorescence ratio, 500 uM ATP over buffer (Cy3 cluster intensity, sum of 5 cycles each) (fold (ratio)); higher = stronger signal-on switching upon ATP binding; sequences stand for … in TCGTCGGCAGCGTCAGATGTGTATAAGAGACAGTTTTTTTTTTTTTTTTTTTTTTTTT…TC
Conditions: aptamer strand: ATP DNA aptamer (quencher-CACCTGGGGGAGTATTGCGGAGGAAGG + anchor), 100 nM annealed; ATP concentration: 500 uM
PROPERTY: switch fluorescence ratio

[[record]]
query_sequence = "AATCTTGGTT"
target_under_test = "ATP"
result = 0.959

[[record]]
query_sequence = "TGTGGGGGAA"
target_under_test = "ATP"
result = 1.2

[[record]]
query_sequence = "AGTGTGTCTT"
target_under_test = "ATP"
result = 0.988

[[record]]
query_sequence = "TTTTAAGCGG"
target_under_test = "ATP"
result = 0.999

[[record]]
query_sequence = "CAAGTAGGTG"
target_under_test = "ATP"
result = 1.03

[[record]]
query_sequence = "AGATTTGGCA"
target_under_test = "ATP"
result = 0.988

[[record]]
query_sequence = "ATATGTGGTA"
target_under_test = "ATP"
result = 1.01

[[record]]
query_sequence = "ATTATGAACC"
target_under_test = "ATP"
result = 1.04

[[record]]
query_sequence = "TGTTTCATTT"
target_under_test = "ATP"
result = 0.989

[[record]]
query_sequence = "GCTGCGGGGA"
target_under_test = "ATP"
result = 0.993

[[record]]
query_sequence = "TTTGGGACAT"
target_under_test = "ATP"
result = 1.01

[[record]]
query_sequence = "ACGAGTGTTG"
target_under_test = "ATP"
result = 1.03

[[record]]
query_sequence = "TCGGACTCTT"
target_under_test = "ATP"
result = 1.01

[[record]]
query_sequence = "AAGGACTTGG"
target_under_test = "ATP"
result = 1.01

[[record]]
query_sequence = "AATCCCTGGG"
target_under_test = "ATP"
result = 1.07

[[record]]
query_sequence = "ATTATTTTAT"
target_under_test = "ATP"
result = 1.05

[[record]]
query_sequence = "TGTCCTAGAG"
target_under_test = "ATP"
result = 1.02

[[record]]
query_sequence = "AGAGATGTTG"
target_under_test = "ATP"
result = 0.993

[[record]]
query_sequence = "GTGCGCATTG"
target_under_test = "ATP"
result = 1.03

[[record]]
query_sequence = "TCAATCATTT"
target_under_test = "ATP"
result = 0.997


* * *

System: ATP;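 also: ATP exposure 15 min at 22 °C before imaging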
Assay: switch fluorescence ratio, 500 uM ATP over buffer (Cy3 cluster intensity, sum of 5 cycles each) (fold (ratio)); higher = stronger signal-on switching upon ATP binding; sequences stand for … in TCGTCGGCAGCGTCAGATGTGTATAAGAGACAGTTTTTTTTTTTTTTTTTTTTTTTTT…TC
Conditions: aptamer strand: ATP DNA aptamer (quencher-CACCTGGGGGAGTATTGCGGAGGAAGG + anchor), 100 nM annealed; ATP concentration: 500 uM
# key: entry, value: switch fluorescence ratio
PROPERTY: switch fluorescence ratio

[[record]]
query_sequence = "ATACGACTTA"
target_under_test = "ATP"
number = 1.04

[[record]]
query_sequence = "TGGGGGGAGT"
target_under_test = "ATP"
number = 1.01

[[record]]
query_sequence = "TTATCGTTTG"
target_under_test = "ATP"
number = 1.02

[[record]]
query_sequence = "GAATTTGCGC"
target_under_test = "ATP"
number = 1.03

[[record]]
query_sequence = "GCTGGGGTCG"
target_under_test = "ATP"
number = 0.963

[[record]]
query_sequence = "GATAGGATGG"
target_under_test = "ATP"
number = 0.984

[[record]]
query_sequence = "CCGTGTAGGG"
target_under_test = "ATP"
number = 1.01

[[record]]
query_sequence = "GTTGCGGAGT"
target_under_test = "ATP"
number = 1

[[record]]
query_sequence = "TCCGGTCGAT"
target_under_test = "ATP"
number = 1.13

[[record]]
query_sequence = "TCATAAGGCG"
target_under_test = "ATP"
number = 0.986

[[record]]
query_sequence = "GCATTTTTTT"
target_under_test = "ATP"
number = 0.996

[[record]]
query_sequence = "GCTGTCGTTA"
target_under_test = "ATP"
number = 1.01

[[record]]
query_sequence = "CGACTACTTT"
target_under_test = "ATP"
number = 1.05

[[record]]
query_sequence = "TAGTCCCCCC"
target_under_test = "ATP"
number = 1.21

[[record]]
query_sequence = "TTTCATTATT"
target_under_test = "ATP"
number = 1.02

[[record]]
query_sequence = "AGATTTTCCT"
target_under_test = "ATP"
number = 1.19

[[record]]
query_sequence = "TTTCTTGTAT"
target_under_test = "ATP"
number = 1.02

[[record]]
query_sequence = "GTTGTATGTA"
target_under_test = "ATP"
number = 1

[[record]]
query_sequence = "GGCCAAGGAA"
target_under_test = "ATP"
number = 0.981

[[record]]
query_sequence = "TTCAGGGTAT"
target_under_test = "ATP"
number = 1.01

[[record]]
query_sequence = "GAGAGTTTAA"
target_under_test = "ATP"
number = 1.01

[[record]]
query_sequence = "GATTCGCCTG"
target_under_test = "ATP"
number = 0.99

[[record]]
query_sequence = "GAGTCAATTT"
target_under_test = "ATP"
number = 1.01

[[record]]
query_sequence = "TAATCCAGAA"
target_under_test = "ATP"
number = 1.01

[[record]]
query_sequence = "TGTTGGGCTC"
target_under_test = "ATP"
number = 0.989

[[record]]
query_sequence = "TGCAATTGGT"
target_under_test = "ATP"
number = 1.01

[[record]]
query_sequence = "TTTTGTGCGG"
target_under_test = "ATP"
number = 0.98

[[record]]
query_sequence = "TGAAGAGGGG"
target_under_test = "ATP"
number = 0.994

[[record]]
query_sequence = "GGGGTGGGCG"
target_under_test = "ATP"
number = 1.01

[[record]]
query_sequence = "GAGGAAATGG"
target_under_test = "ATP"
number = 1.02

[[record]]
query_sequence = "ATTAGTTATA"
target_under_test = "ATP"
number = 0.975

[[record]]
query_sequence = "ATTTGCAGGA"
target_under_test = "ATP"
number = 0.992

[[record]]
query_sequence = "GTTGTTAGAG"
target_under_test = "ATP"
number = 0.989

[[record]]
query_sequence = "TTGGGTAAGA"
target_under_test = "ATP"
number = 1.02

[[record]]
query_sequence = "TATCTAAAAC"
target_under_test = "ATP"
number = 1

[[record]]
query_sequence = "AGGGGCGGGT"
target_under_test = "ATP"
number = 1.23

[[record]]
query_sequence = "TGCGCCTGGG"
target_under_test = "ATP"
number = 1.03

[[record]]
query_sequence = "TTCATTTTAG"
target_under_test = "ATP"
number = 1.02

[[record]]
query_sequence = "TTTTGGTCTT"
target_under_test = "ATP"
number = 1

[[record]]
query_sequence = "GATAGTCATG"
target_under_test = "ATP"
number = 0.985

[[record]]
query_sequence = "CTAGGTTTGG"
target_under_test = "ATP"
number = 1.02

[[record]]
query_sequence = "GACTTGATTA"
target_under_test = "ATP"
number = 0.972

[[record]]
query_sequence = "TTTTTGGACA"
target_under_test = "ATP"
number = 0.993


* * *

System: ATP;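 also: ATP exposure 15 min at 22 °C before imaging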
Assay: switch fluorescence ratio, 500 uM ATP over buffer (Cy3 cluster intensity, sum of 5 cycles each) (fold (ratio)); higher = stronger signal-on switching upon ATP binding; sequences stand for … in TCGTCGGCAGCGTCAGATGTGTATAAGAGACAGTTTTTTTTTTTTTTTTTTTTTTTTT…TC
Details: aptamer strand: ATP DNA aptamer (quencher-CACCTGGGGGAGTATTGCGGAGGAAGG + anchor), 100 nM annealed; ATP concentration: 500 uM
# key: entry, value: switch fluorescence ratio
PROPERTY: switch fluorescence ratio

[[record]]
query_sequence = "GCGGCGGGGA"
number = 1.01

[[record]]
query_sequence = "ACGGGCGGGG"
number = 1.02

[[record]]
query_sequence = "AACTACAGGC"
number = 1.18

[[record]]
query_sequence = "CATGATTTGA"
number = 1.01

[[record]]
query_sequence = "TTATCGAGTT"
number = 1.03

[[record]]
query_sequence = "TTGCTGATTT"
number = 0.992

[[record]]
query_sequence = "CGGAGTCTGT"
number = 1.1

[[record]]
query_sequence = "CGGGTGTGCG"
number = 0.955

[[record]]
query_sequence = "TTATTTAGGA"
number = 0.989

[[record]]
query_sequence = "CGTCAGGGGG"
number = 0.972

[[record]]
query_sequence = "TGAGGCGGGT"
number = 1.05

[[record]]
query_sequence = "TGCACCATTT"
number = 1.02

[[record]]
query_sequence = "TGGGGCGGTT"
number = 0.979

[[record]]
query_sequence = "CGTGTTTGTT"
number = 0.988

[[record]]
query_sequence = "TATAGCCGAA"
number = 1

[[record]]
query_sequence = "TATTAATTGC"
number = 0.995

[[record]]
query_sequence = "ATTATAGGTT"
number = 0.996

[[record]]
query_sequence = "TGGGGAGGAT"
number = 0.974

[[record]]
query_sequence = "ATTTAGGTTA"
number = 0.989

[[record]]
query_sequence = "TTTCGCTCGC"
number = 1.13

[[record]]
query_sequence = "TTGCGAGAAC"
number = 1.17

[[record]]
query_sequence = "GCAAATGGGA"
number = 1.05

[[record]]
query_sequence = "AAATAGGTTG"
number = 1.01

[[record]]
query_sequence = "GGCGATGCGC"
number = 1.03

[[record]]
query_sequence = "TTAATCTGCC"
number = 1.15

[[record]]
query_sequence = "AAAGGGGTTT"
number = 1.02

[[record]]
query_sequence = "TTATTACCGA"
number = 1.06

[[record]]
query_sequence = "CTTTAAGGCA"
number = 0.981

[[record]]
query_sequence = "TTTTGCCATG"
number = 1.04

[[record]]
query_sequence = "TCGGGGATCT"
number = 1.03

[[record]]
query_sequence = "ACAGATTAGT"
number = 1

[[record]]
query_sequence = "TTATCGTGC"
number = 0.986

[[record]]
query_sequence = "TAGTTACGAT"
number = 1.04

[[record]]
query_sequence = "CGTTGAGGGT"
number = 0.99

[[record]]
query_sequence = "GAACTGAGTC"
number = 1.01

[[record]]
query_sequence = "CTTAGTCTTT"
number = 1.02

[[record]]
query_sequence = "CTAACTGGCA"
number = 1.05

[[record]]
query_sequence = "ATTGGGTTTT"
number = 0.999

[[record]]
query_sequence = "AGCGGTCCTC"
number = 1.09

[[record]]
query_sequence = "GACATAGGTT"
number = 1.03

[[record]]
query_sequence = "CACTGGGGTT"
number = 0.988

[[record]]
query_sequence = "GGGGCCGTCA"
number = 0.987

[[record]]
query_sequence = "AATAATGTGC"
number = 0.987

